Target: T1, EsCas13d, nuclease-dead (Eubacterium siraeum, UniProt B0MS50, R295A;H300A;R849A;H854A)
T1 sequence: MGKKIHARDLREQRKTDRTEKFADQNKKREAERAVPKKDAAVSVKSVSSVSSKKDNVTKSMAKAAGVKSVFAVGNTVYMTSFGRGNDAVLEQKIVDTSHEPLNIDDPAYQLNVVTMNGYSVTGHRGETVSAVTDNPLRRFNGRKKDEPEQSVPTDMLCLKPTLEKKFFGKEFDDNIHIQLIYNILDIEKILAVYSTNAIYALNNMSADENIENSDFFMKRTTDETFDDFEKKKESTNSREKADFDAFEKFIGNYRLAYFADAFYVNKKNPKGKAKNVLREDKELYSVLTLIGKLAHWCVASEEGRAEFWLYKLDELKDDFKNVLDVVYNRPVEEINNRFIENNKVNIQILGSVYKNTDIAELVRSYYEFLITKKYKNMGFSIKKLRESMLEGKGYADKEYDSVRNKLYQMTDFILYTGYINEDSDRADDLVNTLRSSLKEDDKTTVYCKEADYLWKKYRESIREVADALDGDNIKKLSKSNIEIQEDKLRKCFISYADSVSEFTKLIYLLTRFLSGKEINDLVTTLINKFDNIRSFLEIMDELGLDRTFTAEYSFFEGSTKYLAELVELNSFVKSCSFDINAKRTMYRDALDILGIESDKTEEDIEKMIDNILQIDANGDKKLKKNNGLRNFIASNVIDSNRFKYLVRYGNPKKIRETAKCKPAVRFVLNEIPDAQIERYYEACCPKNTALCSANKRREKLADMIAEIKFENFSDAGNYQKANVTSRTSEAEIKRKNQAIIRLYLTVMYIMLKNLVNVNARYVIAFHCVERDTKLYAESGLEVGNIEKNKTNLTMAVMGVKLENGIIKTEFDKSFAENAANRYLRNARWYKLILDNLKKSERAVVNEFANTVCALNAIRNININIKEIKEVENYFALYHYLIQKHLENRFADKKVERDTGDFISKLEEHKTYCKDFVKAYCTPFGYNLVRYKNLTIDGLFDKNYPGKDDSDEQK
Assay: crRNA (strand 1, pre-loaded); Mg2+; 40 mM Tris-HCl pH 7.5, 150 mM NaCl, 6 mM MgCl2, 1 mM DTT, 0.1% Tween-20, 0.2 mg/ml BSA; 25 C; 10 min per concentration, then washed
Details: tags: His6-TwinStrep-SUMO cleaved; N-terminal SNAP kept (SNAP-Surface 488); label: 3' end held by stalled T7 RNA polymerase
endpoint.label: Kd (nM)

binder: target 1 insC 3' of 19,insG 3' of 1 (mixed) RNA 1: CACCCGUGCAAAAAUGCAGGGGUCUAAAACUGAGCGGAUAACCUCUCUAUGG RNA 2: GGGAAUGGAUCCACAUCUACGAAUUCGUACCAUCAGAGAGGUUAUCCGCUCAGCCGAGAUCGGAAGAGCACACGU
endpoint.label: Kd
obs.value: 31
//
binder: target 1 insU 3' of 15,insU 3' of 12 (mixed) RNA 1: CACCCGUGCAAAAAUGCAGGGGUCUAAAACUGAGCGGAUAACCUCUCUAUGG RNA 2: GGGAAUGGAUCCACAUCUACGAAUUCGUACCAUAGAGUAGGUUUAUCCGCUCACCGAGAUCGGAAGAGCACACGU
endpoint.label: Kd
obs.value: 8.1
//
binder: target 3 U8A,A18G (mixed) RNA 1: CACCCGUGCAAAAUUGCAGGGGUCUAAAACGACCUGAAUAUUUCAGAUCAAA RNA 2: GGGAAUGGAUCCACAUCUACGAAUUCGUUUUUGGUCUGAAAUAAUCAGGUCUGCAGAUCGGAAGAGCACACGU
endpoint.label: Kd
obs.value: 63
//
binder: target 1 insU 3' of 12,insC 3' of 12 (mixed) RNA 1: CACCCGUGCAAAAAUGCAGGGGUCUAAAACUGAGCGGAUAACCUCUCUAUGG RNA 2: GGGAAUGGAUCCACAUCUACGAAUUCGUACCAUAGAGAGGUCUUAUCCGCUCACCGAGAUCGGAAGAGCACACGU
endpoint.label: Kd
obs.value: 27.6
//
binder: target 2 MT 5'PFS GCG 3'PFS AAC (mixed) RNA 1: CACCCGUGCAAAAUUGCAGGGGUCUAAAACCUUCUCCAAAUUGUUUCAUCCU RNA 2: GGGAAUGGAUCCACAUCUACGAAUUCGCGAGGAUGAAACAAUUUGGAGAAGAACAGAUCGGAAGAGCACACGU
endpoint.label: Kd
obs.value: 15
//
binder: target 1 insC 3' of 18,insU 3' of 2 (mixed) RNA 1: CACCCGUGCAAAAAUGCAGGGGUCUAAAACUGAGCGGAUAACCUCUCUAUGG RNA 2: GGGAAUGGAUCCACAUCUACGAAUUCGUACCAUACGAGAGGUUAUCCGCUCUACCGAGAUCGGAAGAGCACACGU
endpoint.label: Kd
obs.value: 38
//
binder: target 2 MT 5'PFS GUU 3'PFS AGC (mixed) RNA 1: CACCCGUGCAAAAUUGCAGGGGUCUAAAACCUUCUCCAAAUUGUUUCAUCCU RNA 2: GGGAAUGGAUCCACAUCUACGAAUUCGUUAGGAUGAAACAAUUUGGAGAAGAGCAGAUCGGAAGAGCACACGU
endpoint.label: Kd
obs.value: 11.6
//
binder: target 1 MT 5'PFS GUA 3'PFS ACC (mixed) RNA 1: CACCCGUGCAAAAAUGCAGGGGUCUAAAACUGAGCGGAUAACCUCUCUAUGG RNA 2: GGGAAUGGAUCCACAUCUACGAAUUCGUACCAUAGAGAGGUUAUCCGCUCAACCAGAUCGGAAGAGCACACGU
endpoint.label: Kd
obs.value: 7.95
//
binder: target 1 insU 3' of 18,insA 3' of 10 (mixed) RNA 1: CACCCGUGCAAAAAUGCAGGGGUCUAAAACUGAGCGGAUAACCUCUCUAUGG RNA 2: GGGAAUGGAUCCACAUCUACGAAUUCGUACCAUAUGAGAGGUUAAUCCGCUCACCGAGAUCGGAAGAGCACACGU
endpoint.label: Kd
obs.value: 41.2
//
binder: target 3 G3U,C6U (mixed) RNA 1: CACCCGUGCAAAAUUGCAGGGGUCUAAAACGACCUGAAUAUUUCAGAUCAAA RNA 2: GGGAAUGGAUCCACAUCUACGAAUUCGUUUUUGAUCUGAAAUAUUUAGUUCUGCAGAUCGGAAGAGCACACGU
endpoint.label: Kd
obs.value: 19.2
//
binder: target 1 MT 5'PFS AGU 3'PFS ACG (mixed) RNA 1: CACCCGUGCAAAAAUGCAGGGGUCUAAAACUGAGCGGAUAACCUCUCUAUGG RNA 2: GGGAAUGGAUCCACAUCUACGAAUUCAGUCCAUAGAGAGGUUAUCCGCUCAACGAGAUCGGAAGAGCACACGU
endpoint.label: Kd
obs.value: 36
//
binder: target 1 insC 3' of 14,insA 3' of 11 (mixed) RNA 1: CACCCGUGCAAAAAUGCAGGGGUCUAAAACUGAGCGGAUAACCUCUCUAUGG RNA 2: GGGAAUGGAUCCACAUCUACGAAUUCGUACCAUAGAGACGGUAUAUCCGCUCACCGAGAUCGGAAGAGCACACGU
endpoint.label: Kd
obs.value: 42
//
binder: target 1 insA 3' of 6,insG 3' of 6 (mixed) RNA 1: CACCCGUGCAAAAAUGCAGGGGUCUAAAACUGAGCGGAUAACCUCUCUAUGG RNA 2: GGGAAUGGAUCCACAUCUACGAAUUCGUACCAUAGAGAGGUUAUCCAGGCUCACCGAGAUCGGAAGAGCACACGU
endpoint.label: Kd
obs.value: 32
//
binder: target 1 insG 3' of 11,insA 3' of 5 (mixed) RNA 1: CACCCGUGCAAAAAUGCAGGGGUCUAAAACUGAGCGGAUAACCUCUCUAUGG RNA 2: GGGAAUGGAUCCACAUCUACGAAUUCGUACCAUAGAGAGGUGUAUCCGACUCACCGAGAUCGGAAGAGCACACGU
endpoint.label: Kd
obs.value: 26.5
//
binder: target 1 insC 3' of 3,insU 3' of 2 (mixed) RNA 1: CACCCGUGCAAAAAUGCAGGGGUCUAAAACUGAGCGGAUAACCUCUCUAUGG RNA 2: GGGAAUGGAUCCACAUCUACGAAUUCGUACCAUAGAGAGGUUAUCCGCUCCUACCGAGAUCGGAAGAGCACACGU
endpoint.label: Kd
obs.value: 37
